- assay-target: CCR2 (Homo sapiens (Human))
- Sequence (P41597 whole entry): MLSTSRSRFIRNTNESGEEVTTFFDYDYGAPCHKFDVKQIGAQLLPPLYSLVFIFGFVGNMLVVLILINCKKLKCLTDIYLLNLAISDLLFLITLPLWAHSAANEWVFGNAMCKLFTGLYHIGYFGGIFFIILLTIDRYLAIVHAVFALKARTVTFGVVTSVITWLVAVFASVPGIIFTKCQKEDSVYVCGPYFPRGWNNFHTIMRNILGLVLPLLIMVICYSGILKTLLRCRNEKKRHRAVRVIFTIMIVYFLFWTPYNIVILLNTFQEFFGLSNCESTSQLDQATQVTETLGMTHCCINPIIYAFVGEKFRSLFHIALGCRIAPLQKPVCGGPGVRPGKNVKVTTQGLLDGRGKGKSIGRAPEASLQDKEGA
- assay-notes: MCP-1 Receptor Binding Assay in THP-1 Cells
- test-settings: 0.5 nM 125I labeled MCP-1, 2 hours at 30° C., read-out: Inhibition of MCP-1 Binding IC50 MCP1B
pIC50: −log10 of the molar value.
property: pIC50

- compound: "O=C(CNc1ncnc2ccc(C(F)(F)F)cc12)NC1CN([C@H]2CC[C@@H](C3CNC(=O)O3)CC2)C1 (stereo partly shown) [Example 22]"
  pIC50: 7.19

A: CC[C@@H](O)C1CCC(N2CC(NC(=O)CNc3nccc4ccc(C(F)(F)F)cc34)C2)CC1 (stereo partly shown) [Example 167]
B: CC(C)C(O)[C@H]1CC[C@@H](N2CC(NC(=O)CNc3cnnc4ccc(C(F)(F)F)cc34)C2)CC1 (stereo partly shown) [Example 157]
C: O=C(CNc1ncnc2ccc(C(F)(F)F)cc12)NC1CN([C@H]2CC[C@@H](C3CCCCO3)CC2)C1 (stereo partly shown) [Example 14]
D: CCC(NC(C)=O)[C@H]1CC[C@@H](N2CC(NC(=O)CNc3ncnc4ccc(C(F)(F)F)cc34)C2)CC1 (stereo partly shown) [Example 138]
rank_up(items): orders items by reported pIC50 in ascending numerical order. Reply format: the labels, ordered as requested.
D, B, A, C

###

- assay-target: CCR2 (Homo sapiens (Human))
- assay-notes: MCP-1 Receptor Binding Assay in THP-1 Cells;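 note: THP-1 is a human monocytic cell line, and nonspecific binding was defined with 1 µM unlabeled MCP-1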
- test-settings: 0.5 nM 125I labeled MCP-1, 2 hours at 30° C., read-out: Inhibition of MCP-1 Binding IC50 MCP1B
pIC50: −log10 of the molar value.
property: pIC50

Look over these answered cases.
- compound: "CCOCC1CCC(N2CC(NC(=O)CNc3ncnc4ccc(C(F)(F)F)cc34)C2)CC1 (centres unmarked)"
  obs-value: 7.85
- compound: "CCCN(C(=O)OCc1ccccc1)[C@H]1CC[C@@H](N2CC(NC(=O)CNc3ncnc4ccc(C(F)(F)F)cc34)C2)CC1"
  obs-value: 6.52
- compound: "O=C1C=CCC([C@H]2CC[C@@H](N3CC(NC(=O)CNc4ncnc5ccc(C(F)(F)F)cc45)C3)CC2)N1 (some centres unmarked)"
  obs-value: 7.92
- compound: "CC(C)[C@@H](O)[C@H]1CC[C@H](N2CC(NC(=O)CNc3cnnc4ccc(C(F)(F)F)cc34)C2)CC1 (racemic)"
  obs-value: 5.59
- compound: "COCC[C@H]1CC[C@@H](N2CC(NC(=O)CNc3ncnc4ccc(C(F)(F)F)cc34)C2)CC1"
  obs-value: 7.01

A: O=C(CNc1ncnc2ccc(C(F)(F)F)cc12)NC1CN([C@H]2CC[C@@H](c3ccccc3CO)CC2)C1
B: O=C(CNc1ncnc2ccc(C(F)(F)F)cc12)NC1CN([C@H]2CC[C@@H](n3ccccc3=O)CC2)C1
Which of the two items, A and B , has the greater recorded pIC50? Answer = label.
B
(B: 7.82, A: 7.26)

1: CC(=O)N[C@H]1CC[C@@H](N2CC(NC(=O)CNc3ncnc4ccc(C(F)(F)F)cc34)C2)CC1
2: CCOC(=O)CC1CCC(N2CC(NC(=O)CNc3ncnc4ccc(C(F)(F)F)cc34)C2)CC1 (centres unmarked)
3: O=C(CNc1ncnc2ccc(C(F)(F)F)cc12)NC1CN([C@H]2CC[C@@H](N3C(=O)CCC3=O)CC2)C1
4: Nc1ccc(C2CCC(N3CC(NC(=O)CNc4ncnc5ccc(C(F)(F)F)cc45)C3)CC2)nc1 (centres unmarked)
rank_up(items): orders items by reported pIC50 in ascending numerical order. Reply format: the labels, ordered as requested.
1, 3, 2, 4

P: CC(C)(C)OC(=O)NC1CCC(N2CC(NC(=O)CNc3ncnc4ccc(C(F)(F)F)cc34)C2)CC1 (centres unmarked)
Q: CCC(OC)[C@H]1CC[C@@H](N2CC(NC(=O)CNc3ncnc4ccc(C(F)(F)F)cc34)C2)CC1 (some centres unmarked)
R: O=C(CNc1ncnc2ccc(C(F)(F)F)cc12)NC1CN([C@H]2CC[C@@H](N3CCCO3)CC2)C1
List from greatest to least pIC50. Reply format: the labels, ordered as requested.
Q, P, R
